B1: tRNA (parent)
chain: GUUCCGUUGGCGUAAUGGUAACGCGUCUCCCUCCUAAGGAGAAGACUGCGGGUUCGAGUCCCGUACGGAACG

Variants of: B1
Assay summary: yeast fitness relative to wild type (ratio to wild type); higher = fitter; tRNA-Arg(CCU), competitive growth, 37 C, YPD
Fewer inactive variants are shown than the library holds.
Would you kindly list yeast fitness for each of these variants?
Write no unit; give the number alone.

In: Endpoint output: yeast fitness of U2C U26C C61G G63A A69U . Value?
Out: 0.56

In: Endpoint output: yeast fitness of A36U U53G . Value?
Out: 0.544

In: Endpoint output: yeast fitness of C46U U54C A69C . Value?
Out: 0.778

In: Endpoint output: yeast fitness of G12C C24U G67C . Value?
Out: 0.536

In: Endpoint output: yeast fitness of U16C G41A C49U . Value?
Out: 0.605

In: Endpoint output: yeast fitness of G9A C22A U53A A57G . Value?
Out: 0.554

In: Endpoint output: yeast fitness of U7G C11U U16A . Value?
Out: 0.518

In: Endpoint output: yeast fitness of A15C U35G . Value?
Out: 0.621

In: Endpoint output: yeast fitness of U3C C49G . Value?
Out: 0.943

In: Endpoint output: yeast fitness of C27A C62U . Value?
Out: 0.815

In: Endpoint output: yeast fitness of C66A . Value?
Out: 0.766
